Biological target: T1, human Factor XIIa-beta (human, UniProt P00748 354-615, limits assumed)
T1 construct: Bought from Enzyme Research Laboratories; also called FXIIa beta; FXIIa-beta
T1 sequence: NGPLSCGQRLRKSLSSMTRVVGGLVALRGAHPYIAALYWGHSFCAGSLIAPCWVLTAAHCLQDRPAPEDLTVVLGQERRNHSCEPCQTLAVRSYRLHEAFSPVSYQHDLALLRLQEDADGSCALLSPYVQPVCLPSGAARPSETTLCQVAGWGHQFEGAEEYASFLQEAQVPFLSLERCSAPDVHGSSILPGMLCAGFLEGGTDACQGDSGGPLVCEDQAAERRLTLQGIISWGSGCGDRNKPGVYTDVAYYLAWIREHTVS
Assay: SPR (Biacore A100), unpurified IgG4 supernatant captured on anti-human IgG, single FXIIa beta concentration (100 nM), 37 C, 1:1 fit; estimated
Test readout: Kd (nM)
Write down the numeric answer in nM and omit the unit.

What Kd value was documented for this binder, VR148 (antibody, V domains shown, Libraries were built on germline stop templates, so frameworks may differ) VH: EVQLLESGGGLVQPGGSLRLSCAASGFTFSKYIMQWVRQAPGKGLEWVSGIRPSGGTTVYADSVKGRFTISRDNSKNTLYLQMNSLRAEDTAVYYCARALPRSGYLVKKQYYYYALDVWGQGTTVTVSS VL: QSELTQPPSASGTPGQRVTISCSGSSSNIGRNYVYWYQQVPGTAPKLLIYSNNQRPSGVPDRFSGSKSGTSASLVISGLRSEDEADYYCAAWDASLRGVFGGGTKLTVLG ? 6.93

Further cases:
What Kd value was documented for this binder, VR99 (antibody, V domains shown, Libraries were built on germline stop templates, so frameworks may differ) VH: EVQLLESGGGLVQPGGSLRLSCAASGFTFSKYIMQWVRQAPGKGLEWVSGINPATMTTVYADSVKGRFTISRDNSKNTLYLQMNSLRAEDTAVYYCARALPRSGYLISPHYYYYALDVWGQGTTVTVSS VL: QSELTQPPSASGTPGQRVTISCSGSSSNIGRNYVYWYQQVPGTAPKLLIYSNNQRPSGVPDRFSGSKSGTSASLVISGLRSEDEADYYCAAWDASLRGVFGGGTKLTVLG ? 9.19

What Kd value was documented for this binder, VR52 (antibody, V domains shown, Libraries were built on germline stop templates, so frameworks may differ) VH: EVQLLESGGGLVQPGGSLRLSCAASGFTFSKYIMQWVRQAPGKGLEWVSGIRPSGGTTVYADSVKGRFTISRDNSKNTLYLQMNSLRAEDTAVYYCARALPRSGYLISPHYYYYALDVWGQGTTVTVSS VL: QSVLTQPPSASGTPGQRVTISCSGSSSNIGRNYVYWYQQLPGTAPKLLIYSNNQRPSGVPDRFSGSKSGTSASLAISGLRSEDEADYYCAAWDERVRLMFGGGTKLTVL ? 7.1

What Kd value was documented for this binder, VR14 (antibody, V domains shown, Libraries were built on germline stop templates, so frameworks may differ) VH: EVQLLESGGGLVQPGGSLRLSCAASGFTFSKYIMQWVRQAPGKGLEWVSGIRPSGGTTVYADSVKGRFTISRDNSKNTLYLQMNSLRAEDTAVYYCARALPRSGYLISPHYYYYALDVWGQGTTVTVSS VL: QSVLTQPPSASGTPGQRVTISCSGSSGMVEQNYVYWYQQLPGTAPKLLIYSNNQRPSGVPDRFSGSKSGTSASLAISGLRSEDEADYYCAAWDASLRGVFGGGTKLTVL ? 6.22

Source listed as patent US20200062863A1.
